Taken from patent US10450263B2.

As shown below, each of these compounds has a reported CC50 value.
assayComment: CC50 reported alongside the CHIKV antiviral assay (cytotoxicity)
Type: cell-based
appliedConditions: cell line not given

Study these solved cases before continuing.
{"compound": "CCn1nc(C(=O)Nc2ccc3c(c2)CCCCC3)cc1C", "CC50": "> 30 µM"}
{"compound": "CC(C)(C)c1ccc(C(=O)Nc2cc3c(cc2OC(F)(F)F)CCCCC3)cc1", "CC50": "> 25 µM"}
{"compound": "COc1cc2c(cc1NC(=O)c1cc(C)n(C(C)(C)C)n1)CCCCC2", "CC50": "> 30 µM"}
{"compound": "CCn1nc(C(=O)Nc2cc3c(cc2OC)CCCCC3)cc1C", "CC50": "> 30 µM"}
{"compound": "COc1cc2c(cc1NC(=O)c1ccc(Cl)cc1I)CCCCC2", "CC50": "> 30 µM"}
{"compound": "CC(C)(C)c1ccc(C(=O)Nc2cc3c(cc2C#N)CCCCC3)cc1", "CC50": "17 µM"}
{"compound": "COc1cc2c(cc1NC(=O)CCc1ccc(C(C)(C)C)cc1)CCCCC2", "CC50": "> 30 µM"}
{"compound": "COc1cc2c(cc1NC(=O)c1cnc(C(C)(C)C)nc1)CCCCC2", "CC50": "37.6 µM"}
{"compound": "CC(C)(C)c1ccc(C(=O)Nc2cc3c(cc2C(F)(F)F)CCCCC3)cc1", "CC50": "> 30 µM"}
{"compound": "CCCc1ccc(C(=O)Nc2cc3c(cc2OC)CCCCC3)cc1", "CC50": "> 30 µM"}

What value of measured CC50 is listed for CC(C)(C)c1ccc(C(=O)Nc2cc3c(cc2CO)CCCCC3)cc1 ?
> 30 µM

Similarly, CC(C)(C)c1ccc(C(=O)Nc2ccc3c(c2OC(F)(F)F)CCCCC3)cc1 ?
> 30 µM

Similarly, COc1cc2c(cc1NC(=O)c1ccccc1C(C)(C)C)CCCCC2 ?
> 30 µM

Similarly, CC(C)(C)c1ccc(C(=O)Nc2cc3c(cc2O)CCCCC3)cc1 ?
> 30 µM

Similarly, COc1cc2c(cc1NC(=O)c1cnc(C)cn1)CCCCC2 [Compound 39] ?
> 30 µM

Similarly, CC(C)(C)n1nc(C(=O)Nc2ccc3c(c2)CCCCC3)cc1C(F)(F)F ?
> 30 µM
